- Test system: OVCAR-5 ovarian
- experimentNotes: NCI tumour cell line growth inhibition, 48 h
Answer each item with its documented TGI.

Consider the worked cases shown below.
compound: CC1=CSC(O)(c2ccc(Cl)cc2)c2noc(=O)n21 (stereo not drawn)
reading: > 100 µM
--
compound: COc1ccc(-c2nn(-c3ccc(NC(=O)Nc4ccc(Cl)c(Cl)c4)cc3)cc2-c2ccncc2)cc1Cl
reading: > 100 µM
--
compound: O=C1NC2(CCCC2)/C(=N\O)C12CCCC2
reading: > 100 µM
--
compound: Fc1ccc2c(c1)SC1Oc3ccccc3-c3c1c-2nn3-c1ccccc1 (stereo not drawn)
reading: > 100 µM
--
compound: N#CC(c1ccccc1)N(CCc1ccccc1)C(=O)c1ccccc1 (stereo not drawn)
reading: > 100 µM

Quick one: give me TGI for each item below, same order please.
1. COc1ccc(C2=CC(c3ccc(Oc4ccnc5cc(Cl)ccc45)c(OC)c3)c3c(nc(OC)[nH]c3=O)N2)cc1 (stereo not drawn)
2. Cc1nc2nn(Cc3ccccc3)cc2c(=O)o1
3. O=[N+]([O-])c1ccc(/C=N\Nc2ccc([N+](=O)[O-])cn2)cc1

1: > 100 µM; 2: > 100 µM; 3: > 100 µM

Dear colleague, could you please provide TGI for the compounds listed below?
1. COc1ccc(S(=O)(=O)NC2=NCCN2C(=S)SN2CCn3c2nsc3=S)cc1OC
2. CN(C)/N=C1\C=C2CC[C@H](O[Si](C)(C)C(C)(C)C)[C@@]2(C)CC1
3. CN/C=C(/c1ccc(OC)cc1)C(O)c1ccc(OC)c(OC)c1 (stereo not drawn)
4. CCOC(=O)CCSS(=O)(=O)C(F)(F)F

1: 40.4 µM; 2: 32.5 µM; 3: > 100 µM; 4: > 100 µM

Report TGI for each item below.
1. COc1cc(/C=C/C(=O)NC[C@]2(O)CCC3C4CCc5cc(O)ccc5C4CCC32C)ccc1O (stereo partly drawn)
2. CCCCCCCC/C=C\CCCCCCCC(=O)OC[C@]1(CO)CCC(=O)O1
3. COc1ccc2c(c1)CCC(CN1CCN(CCOC(c3ccc(F)cc3)c3ccc(F)cc3)CC1)C2O (stereo not drawn)
4. CN(C)CCN1C(=O)c2cccc3c(N)ccc(c23)C1=O
5. COc1ccc2[nH]c(-c3ccccc3)c(C=C(C#N)C#N)c2c1
6. COC1/C=C\OC2(C)Oc3c(C)c(O)c4c(O)c(c(/C=N\OCCCc5ccccc5)c(O)c4c3C2=O)NC(=O)/C(C)=C\C=C/C(C)C(O)C(C)C(O)C(C)C(OC(C)=O)C1C (stereo not drawn)

1: > 100 µM; 2: > 100 µM; 3: 28.6 µM; 4: > 25 µM; 5: > 100 µM; 6: 20.4 µM

Give TGI for all compounds that follow.
1. CCOC(=O)c1ccc(NC(=O)O/N=C(/Cl)C(C)C)cc1
2. Nc1ccc(C(=O)NN2C(=O)C(Cl)C2c2cc(Br)cc(Br)c2O)cc1 (stereo not drawn)
3. COC(=O)/C(=N\N)C(C(=O)C(=O)Nc1cccc([N+](=O)[O-])c1)c1nc2ccc(C(=O)c3ccccc3)cc2[nH]c1=O (stereo not drawn)

32.9 µM
> 100 µM
> 100 µM

---

- Test system: LOX IMVI melanoma
- experimentNotes: NCI tumour cell line growth inhibition, 48 h
Give TGI for every item shown.
Answers are plain numbers, in µM.

Solved entries:
molecule: CN(C)CCNC(=O)c1cccc2ccc(-c3cccnc3)nc12
reading: 15.1
--
molecule: Cc1cc(S(=O)(=O)Nc2nc3ccccc3[nH]2)c(S)cc1Cl
reading: 39.8
--
molecule: N#Cc1nc(Sc2cnsn2)c(Sc2cnsn2)nc1C#N
reading: 50.2
--
molecule: C=CC1(c2ccccc2Cl)N/C(=C/OCC)CO1 (stereo not given)
reading: 55.3
--
molecule: COC(=O)CCCC(=O)NC1=C(Nc2ccccc2)C(=O)c2ccccc2C1=O
reading: 41.6
--
molecule: C[n+]1c2cc(N)ccc2cc2ccc(N)cc21 (tested in a mixture with another compound)
reading: 1.46
--
molecule: COc1ccc2[nH]c3c([N+](=O)[O-])ccc(Cl)c3c(=O)c2c1
reading: 34.5
--
molecule: CCN(CC)C(=S)SC(=S)N(CC)CC
reading: 58.9
--
molecule: O=C(C[C@@]1(O)C(=O)Nc2c(Cl)ccc(Cl)c21)c1ccc(C2CC2)cc1
reading: 13.9
--
molecule: CC(=O)OCC1OC(O[C@@H]2C[C@H]3C(C)(C)[C@H](OC(C)=O)CC[C@]3(C)[C@H]3CC[C@]4(C)C(=CC[C@H]4[C@@H](C)C[C@@H](O)[C@H](O)C(C)(C)O)[C@@]32C)C(O)C(O)C1O (stereo not given in full)
reading: 30.2

Give measured TGI for every item shown.
1. NC1=NN(c2ccccc2)C(=O)C1/C(=N\NC(=O)c1cc2ccccc2cc1O)C(=O)Nc1nc([N+](=O)[O-])cs1 (stereo not given)
2. O=S(=O)(CC#CCCCOCC#Cc1ccccc1C#CCS(=O)(=O)c1ccccc1)c1ccccc1
3. C=C(CN(C)C)C(=O)c1ccc(C)cc1C
4. N#Cc1c(N)c2c(c(-c3ccccc3)c1-c1ccccc1)C(=O)N(Nc1ccccc1)C2=O
5. COc1ccc2nc3ccccc3c(NCCCCCN(CCCl)CCCl)c2c1
6. CC(C)(C)OC(=O)N1CC(Cn2cc(C(F)(F)F)c3c(Cl)ncnc32)C1
7. COc1cc(-c2nc3ccccc3[nH]2)ccc1OCC(=O)N=Nc1c(O)[nH]c2ccc(Cl)cc12
8. O=C1N[C@H]2C(=O)c3c(Cl)sc(Cl)c3[C@H]2O1

[55.4, 24.8, 15.2, 86.8, 0.376, 3.27, 1.24, 6.97]

Would you mind giving TGI for every molecule in the list below?
1. CCOC(=O)/C(=C/c1ccccc1)C(=O)c1ccccc1
2. COc1ccc2c(c1)C(=O)c1c-2c(OCCN(C)C)nc2cc(OC)ccc12
3. Clc1nc(Cl)c2ncn(C/C=C/Cn3cnc4c(Cl)nc(Cl)nc43)c2n1

[3.82, 2.07, 28.9]

---

- System: OVCAR-4 ovarian
- experimentNotes: NCI tumour cell line growth inhibition, 48 h
metric: TGI

In the examples that follow, each entry is paired with its recorded TGI.
molecule: COC(=O)/C(=N\N)C(C(=O)C(=O)Nc1cccc([N+](=O)[O-])c1)c1nc2ccc(C(=O)c3ccccc3)cc2[nH]c1=O (configuration not stated)
TGI: > 100 µM
--
molecule: Cc1ccc(/C=N/NS(=O)(=O)c2ccccc2)cc1
TGI: > 100 µM
--
molecule: COC(=O)c1ccc(/C=C2\Cc3ccccc3C2=O)cc1
TGI: > 100 µM
--
molecule: Fc1c[c-]c(-c2ccccn2)c(F)c1.[CH3-].[Pt+2].c1ccc([PH+](c2ccccc2)c2ccccn2)cc1
TGI: 7.06 µM
--
molecule: COc1ccc(-c2nn(-c3ccc(NC(=O)Nc4ccc(Cl)c(Cl)c4)cc3)cc2-c2ccncc2)cc1Cl
TGI: > 100 µM

// each listed molecule needs a value for TGI
1. CN1CCC(C(=O)NNc2ccccc2)CC1
2. Cc1nc2c(=O)n(C)c(=O)nc-2n(CCO)c1C
3. CCOC(=O)NC(Nc1ccc(F)c(F)c1)(C(=O)OCC)C(F)(F)F (configuration not stated)
4. N#Cc1c(N)c2c(c(-c3ccccc3)c1-c1ccccc1)C(=O)N(Nc1ccccc1)C2=O
5. COc1ccc(OC)c(/C=C/C(=O)C(C)(C)C)c1

1. > 100 µM
2. > 100 µM
3. > 100 µM
4. > 100 µM
5. 49 µM

List the reported TGI of each molecule below.
1. OC(COc1cccc2ccccc12)CN1CCN(c2ccc(Cl)cc2)CC1 (configuration not stated)
2. Cc1cc(Cl)ccc1NC(=O)C(=O)Cc1ccc([N+](=O)[O-])c([N+](=O)[O-])c1CC(=O)C(=O)Nc1ccc(Cl)cc1C

1: 49.3 µM; 2: > 100 µM

---

- Test system: NCI-H522 lung
- experimentNotes: NCI tumour cell line growth inhibition, 48 h
Please respond with reported TGI for every item in the list.
One number for each entry, in µM.

Give TGI for each of the items listed below.
1. COc1ccc(S(=O)(=O)NC2=NCCN2C(=S)SN2CCn3c2nsc3=S)cc1OC
2. COc1ccc2nc3ccccc3c(NCCCCCN(CCCl)CCCl)c2c1
3. CC(C)(Cl)C(Br)CCC(CBr)=C(Cl)CCl (mixture of isomers)
4. O=C1N(CN2CCOCC2)CN(CN2CCOCC2)C(=O)N1Cc1ccc(-c2ccc(CN3C(=O)N(CN4CCOCC4)CN(CN4CCOCC4)C3=O)cc2)cc1
5. OC(COc1cccc2ccccc12)CN1CCN(c2ccc(Cl)cc2)CC1 (centres undefined)
6. Clc1nc(Cl)c2ncn(C/C=C/Cn3cnc4c(Cl)nc(Cl)nc43)c2n1
7. Cc1ccc(Nc2[nH]c(C(=O)c3ccc(Cl)cc3)c(N)c2C(=S)Nc2ccccc2)nc1

1. 38.8
2. 0.017
3. 3.22
4. 35.4
5. 43.5
6. 22.7
7. 73.2
